// reported PBM binding z-score for each item listed
system: PPARg:RXRa 90nM:30nM, anti-RXR (NR concentration 90 nM, RXRa partner concentration 30 nM); assay: PBM binding z-score (relative to random genomic background probes); higher = stronger binding; sequences stand for … in GC…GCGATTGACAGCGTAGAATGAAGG
Endpoint Name: PBM binding z-score

>>> endpoint_value("ACTAGCAGGCCAAGGGACACTCAAGATTAGTCCG")
1.86
>>> endpoint_value("TCATATAGGTAATGGTGAAAGTCGAACGATATGA")
3.12
>>> endpoint_value("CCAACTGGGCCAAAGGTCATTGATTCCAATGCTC")
11.4
>>> endpoint_value("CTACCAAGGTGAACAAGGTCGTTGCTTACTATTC")
0.845
>>> endpoint_value("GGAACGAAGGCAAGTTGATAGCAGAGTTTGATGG")
-0.674
>>> endpoint_value("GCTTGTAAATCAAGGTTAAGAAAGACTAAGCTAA")
0.622
>>> endpoint_value("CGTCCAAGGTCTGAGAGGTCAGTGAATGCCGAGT")
-0.154
>>> endpoint_value("GCGACTGGGGCAAAGCAGGTTACCATTAGGTTGG")
0.675
>>> endpoint_value("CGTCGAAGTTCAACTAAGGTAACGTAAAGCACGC")
1.23
>>> endpoint_value("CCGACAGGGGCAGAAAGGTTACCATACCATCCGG")
1.32
>>> endpoint_value("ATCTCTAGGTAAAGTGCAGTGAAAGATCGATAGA")
1.67
>>> endpoint_value("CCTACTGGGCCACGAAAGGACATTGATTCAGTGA")
0.606

Attribution: the supplement of paper PMC6555819
